molecular target: G protein-activated inward rectifier potassium channel 2 (Homo sapiens) + G protein-activated inward rectifier potassium channel 1 (Homo sapiens) (UniProt P48051+P48549); experiment: GIRK1/2 thallium flux modulators, retest, confirmation, cell-based, HEK293 rmGlu8/hGIRK1/2, FluoZin-2 (AID 623911); conditions: HEK293 rmGlu8/hGIRK1/2, thallium flux FluoZin-2; actives lie on both sides; glutamate co-added at its EC20 level
Sequence (P48051 whole entry, looked up): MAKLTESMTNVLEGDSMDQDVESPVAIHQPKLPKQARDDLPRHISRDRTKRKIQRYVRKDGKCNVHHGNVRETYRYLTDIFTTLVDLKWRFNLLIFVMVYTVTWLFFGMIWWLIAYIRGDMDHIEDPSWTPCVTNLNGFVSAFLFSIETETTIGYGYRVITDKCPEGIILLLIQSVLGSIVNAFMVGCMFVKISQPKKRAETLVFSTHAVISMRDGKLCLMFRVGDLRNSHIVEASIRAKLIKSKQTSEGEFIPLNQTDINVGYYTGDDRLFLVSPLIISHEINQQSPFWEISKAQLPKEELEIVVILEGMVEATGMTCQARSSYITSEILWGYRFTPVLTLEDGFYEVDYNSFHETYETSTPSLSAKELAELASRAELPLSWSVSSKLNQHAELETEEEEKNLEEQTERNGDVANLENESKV
Sequence (P48549 whole entry, looked up): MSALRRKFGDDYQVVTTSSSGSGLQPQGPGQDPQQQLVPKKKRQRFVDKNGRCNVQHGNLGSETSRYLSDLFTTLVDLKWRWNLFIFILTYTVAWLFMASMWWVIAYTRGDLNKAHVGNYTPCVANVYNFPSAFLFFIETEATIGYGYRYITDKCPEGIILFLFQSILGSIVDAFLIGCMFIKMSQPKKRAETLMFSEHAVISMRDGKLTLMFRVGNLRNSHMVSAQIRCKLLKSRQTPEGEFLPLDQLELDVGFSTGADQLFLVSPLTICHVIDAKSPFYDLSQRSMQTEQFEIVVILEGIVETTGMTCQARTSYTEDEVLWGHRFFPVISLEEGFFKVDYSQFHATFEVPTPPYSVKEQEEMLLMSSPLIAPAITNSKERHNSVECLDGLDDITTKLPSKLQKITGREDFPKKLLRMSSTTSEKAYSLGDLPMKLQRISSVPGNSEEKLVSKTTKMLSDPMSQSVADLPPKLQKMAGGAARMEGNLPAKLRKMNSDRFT
Hit rate of the full screen: of about 2,100 compounds, about 770 (37%) were called active. This is one part of the list.
As shown below, each of these molecules has a reported manual score value.

- Molecule: "Cc1c(N2C(=O)CS/C2=N\\N=C\\c2ccccc2O)c(=O)n(-c2ccccc2)n1C"
  manual score: 0
- Molecule: "CCCCCNC(=O)c1ccc2c(=O)[nH]c3c(C(=O)NCC4CCCO4)sc(=S)n3c2c1 (centres undefined)"
  manual score: 0
- Molecule: "O=C(NC(=S)N1CCc2ccccc21)c1ccccc1Br"
  manual score: 1
- Molecule: "O=C(O)c1ccccc1C(=O)Nc1ccc(-c2csc(-c3ccccc3)n2)cc1"
  manual score: 0
- Molecule: "COc1ccc(NC2=Nc3cccc4cccc2c34)cc1OC"
  manual score: 0
- Molecule: "Oc1ccccc1CNc1ccc(Br)cn1"
  manual score: 0
- Molecule: "COc1ccc(-c2nnc3sc(C4CCCCC4)nn23)cc1OC"
  manual score: 0
- Molecule: "O=C(NC(=S)N1CCCc2ccccc21)c1ccc([N+](=O)[O-])cc1"
  manual score: 1
- Molecule: "CCCCN(C)C1=Nc2cccc3cccc1c23"
  manual score: -1
- Molecule: "Cc1ccccc1Cn1c(=N)n(CC(O)c2ccco2)c2ccccc21 (centres undefined)"
  manual score: -1
- Molecule: "CCOc1ccccc1Cn1c(=O)oc2ccc(C)cc21"
  manual score: -1
- Molecule: "CCN1CCCC1CNC(=O)CSCc1nc(-c2ccccc2C)oc1C (centres undefined)"
  manual score: -1
- Molecule: "C=C(C)C1CC=C(C)/C(=N/NC(=O)COc2ccc(C)cc2)C1 (centres undefined)"
  manual score: 0
- Molecule: "O=C(NN=c1c(=O)c2ccccc2c1=O)c1ccccc1"
  manual score: 1
- Molecule: "COc1ccc(CN2CCNC(=O)C2CC(=O)O)cc1OC (centres undefined)"
  manual score: 0
- Molecule: "CC1Oc2ccccc2C=C1/C=N/NC(=O)c1ccccc1 (centres undefined)"
  manual score: 0
- Molecule: "O=C(NC(=S)N1CCCc2ccccc21)c1ccccc1"
  manual score: 1
- Molecule: "C=C(C)C1CC=C(C)/C(=N/NC(=O)COc2cccc(C)c2)C1 (centres undefined)"
  manual score: 1
- Molecule: "CS(=O)(=O)Nc1ccc(C2=NN(C(=O)C3CCCCC3)C(c3cccs3)C2)cc1 (centres undefined)"
  manual score: -0.5
- Molecule: "O=C(N/N=C1\\CCCc2ccccc21)c1ccc([N+](=O)[O-])cc1"
  manual score: 0
- Molecule: "O=C(CCN1C(=O)COc2ccccc21)NCCCN1CCc2ccccc2C1"
  manual score: 0
- Molecule: "O=C(c1ccccc1)N1CCCc2ccccc21"
  manual score: 0
- Molecule: "Cc1ccccc1Cn1c(=N)n(CC(=O)c2ccco2)c2ccccc21"
  manual score: -1
- Molecule: "C/C(=N\\O)C(C)NC(=O)c1ccccc1 (centres undefined)"
  manual score: -0.5
